Test: clinical
Details: human, in vivo, 240 mg, Cmax
measured-endpoint: Cmax
Units required after the number.

Input Cc1nc(-c2ccc(OCC(C)C)c(C#N)c2)sc1C(=O)O [Febuxostat] . Output Cmax: 8390 ng/mL

---

Assay: clinical
Conditions: human, in vivo, 10 mg, AUC (AUC∞)
measured-endpoint: AUC(0-inf) (ng·h/mL)
Answers are plain numbers, in ng·h/mL.

In plain terms, Cc1nc(-c2ccc(OCC(C)C)c(C#N)c2)sc1C(=O)O has a documented AUC(0-inf) of 727

---

Test: clinical
Settings: human, in vivo, 10 mg, Vss/F
Experimental: The development of the previously described embodiments resulted from a long drug development process. […] The study was also designed to assess the pharmacokinetic and pharmacodynamic profiles of multiple daily oral doses over a range of doses and ranges, including both once-daily and twice-daily administration. Samples were analyzed by high performance liquid chromatography.
measured-endpoint: Vd/F (L)
Answers are plain numbers, in L.

The compound listed as Cc1nc(-c2ccc(OCC(C)C)c(C#N)c2)sc1C(=O)O [Febuxostat] has a reported Vd/F of 38.2

Every entry's value here was drawn from patent US9248119B2.
